# Tested on: CD2F1 mice, L1210 leukemia ip, survival T/C
# EXPERIMENTAL DETAILS: NCI In Vivo Anticancer Drug Screen. Data for tumor model L1210 Leukemia (intraperitoneal) in CD2F1 (CDF1) mice
# PARTICULARS: endpoint: mean survival time; dose: 50.0 mg/kg/injection; schedule: Q01DX001 (ip); vehicle: saline with Tween-80; higher = longer survival
# Experimental: The antitumor activity of compounds was measured in mice bearing transplantable tumors. Survival or tumor size were measured and the results are expressed as the measurement made in the treated group (T) divided by the measurement made in the vehicle treated control group (C). The tumor model used in this assay is L1210 Leukemia (intraperitoneal) in CD2F1 (CDF1) mice
Inconclusive results and toxic doses are left out.
TEST READOUT: T/C

// query Record request: T/C value, item O=S(=O)(O)C(Nc1ccccn1)c1ccccc1 (configuration not stated)
// result 106 % of control

// query Please report the recorded T/C for `COc1ccc(-n2cnc3c(=O)[nH]c(N)nc32)cc1` .
// result 92 % of control

// query # T/C lookup, item `O=C1C2(c3ccccc3)CCC1(c1ccccc1)C(c1ccccc1)=C2c1ccccc1`
// result 87 % of control

// query Give the measured T/C of `O=C(O)c1ccc(N/N=C/C(F)(F)F)cc1` .
// result 101 % of control

// query Which value of T/C has been reported for `NC(N)=NC(N)=Nc1ccc(-c2ccccc2)cc1` in the records?
// result 103 % of control

// query If you can, please state the reported T/C value of COc1cccc(CC2NCCc3c2[nH]c2ccccc32)c1 (configuration not stated) .
// result 90 % of control

// query Return reported T/C; argument: Cc1c2c(cc3c1CCC1(C)C(C(C)CCC(C)C(C)C)CC(O)C31O)CCCC2 (configuration not stated)
// result 92 % of control
